Overview of recorded ratio of IC50 for cells with mutant EGFR to IC50 for cells with wildtype EGFR (Mut/WT) for various compounds
EXPERIMENTAL SYSTEM: EGFR S720P (Homo sapiens, UniProt P00533, S720P)
Construct: expressed in transfected cells; host or cells: Ba/F3 cells, retroviral pBabe-Puro vector (vector made by GeneScript from EGFR WT)
EXPERIMENT NOTES: Ba/F3 drug screening, Cell Titer Glo, IC50 Mut/WT
Type: cell-based
MEASUREMENT PARAMETERS: Classical-Like, 72 hours

# annotated cases, reported ratio of IC50 for cells with mutant EGFR to IC50 for cells with wildtype EGFR (Mut/WT) shown
C=CC(=O)Nc1cc(Nc2nccc(-n3cc(CN(C)C)c(-c4ccccc4)n3)n2)c(OC)cc1N1CCOCC1; 0.01568
C=CC(=O)Nc1cc(Nc2ncc(C(=O)OC(C)C)c(-c3cn(C)c4ccccc34)n2)c(OC)cc1N(C)CCN(C)C; 0.111
CN(C)C/C=C/C(=O)Nc1cc2c(Nc3ccc(Cl)c(Br)c3)ncnc2cn1; 0.02412
C=CC(=O)Nc1cccc(Oc2nc(Nc3ccc(N4CCN(C)CC4)cc3)nc3ccsc23)c1; 0.003331
CNC(=O)CN1CCC(Oc2cc3c(Nc4cccc(Cl)c4F)ncnc3cc2OC)CC1; 0.004664

ratio of IC50 for cells with mutant EGFR to IC50 for cells with wildtype EGFR (Mut/WT) reading for `Cc1cc(C(=O)Nc2nc3cccc(Cl)c3n2[C@@H]2CCCCN(C(=O)/C=C/CN(C)C)C2)ccn1` : 0.005619

ratio of IC50 for cells with mutant EGFR to IC50 for cells with wildtype EGFR (Mut/WT) reading for `COc1cc2ncnc(Nc3ccc(F)c(Cl)c3)c2cc1NC(=O)/C=C/CN1CCCCC1` : 0.03879

ratio of IC50 for cells with mutant EGFR to IC50 for cells with wildtype EGFR (Mut/WT) reading for `COc1cc2ncnc(Nc3cccc(Cl)c3F)c2cc1OC(=O)N1CCN(C)C[C@H]1C` : 0.01834

Data origin, for the record: patent US20240384350A1
